Sourced from patent US20230312686A1

# measurement.target: T1, Recombinant murine glypican-3 (aa 25-557), R&D Systems (murine, UniProt Q8CFZ4 25-557)
# T1 construct: also called muGPC3; Mu GPC3-His
# T1 sequence (Q8CFZ4 25-557 limits assumed, form in doubt): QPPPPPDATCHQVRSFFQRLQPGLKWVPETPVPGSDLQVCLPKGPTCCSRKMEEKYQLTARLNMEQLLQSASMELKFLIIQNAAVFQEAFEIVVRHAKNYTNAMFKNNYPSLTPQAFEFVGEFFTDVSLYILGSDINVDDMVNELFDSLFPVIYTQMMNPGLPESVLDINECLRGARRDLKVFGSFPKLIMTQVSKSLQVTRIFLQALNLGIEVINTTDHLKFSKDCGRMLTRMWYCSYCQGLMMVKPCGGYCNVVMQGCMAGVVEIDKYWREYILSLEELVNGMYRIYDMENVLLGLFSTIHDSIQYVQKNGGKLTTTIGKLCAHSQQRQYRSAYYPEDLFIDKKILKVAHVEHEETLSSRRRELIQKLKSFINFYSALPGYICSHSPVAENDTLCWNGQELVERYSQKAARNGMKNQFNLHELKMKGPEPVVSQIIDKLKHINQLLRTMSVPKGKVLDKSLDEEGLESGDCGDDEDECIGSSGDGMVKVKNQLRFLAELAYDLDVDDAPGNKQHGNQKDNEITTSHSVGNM
# assay.name: SPR, Biacore T100, GPC3-His immobilised, 1:1 fit
measurement.label: Kd (nM)
Numbers only here, please. The scale is nM.

Below, each entry is followed by its recorded Kd result.
Prompt: Requested read-out: Kd. Entry: ADX_6077_F02 DG→DA mutant, alkylated (designed binder, C-terminal cysteine alkylated, also called P1-055660; PI-055660) GVSDVPRDLEVVAATPTSLLISWSDDYHAHRYYRITYGETGGNSPVQEFTVPGEHVTATISGLKPGVDYTITVYAVTYDAEKAATDWSISINYRTPC
Completion: 16

Prompt: // next record ADX_6077_F02 DG→DL mutant, alkylated (designed binder, C-terminal cysteine alkylated, also called P1-055671) GVSDVPRDLEVVAATPTSLLISWSDDYHAHRYYRITYGETGGNSPVQEFTVPGEHVTATISGLKPGVDYTITVYAVTYDLEKAATDWSISINYRTPC
Completion: 15

***
Prompt: Requested read-out: Kd. Entry: ADX_6077_F02 DG→AG mutant, alkylated (designed binder, C-terminal cysteine alkylated, also called P1-055669) GVSDVPRDLEVVAATPTSLLISWSDDYHAHRYYRITYGETGGNSPVQEFTVPGEHVTATISGLKPGVDYTITVYAVTYAGEKAATDWSISINYRTPC
Completion: 15

Prompt: // next record ADX_6077_F02 DG→DV mutant, alkylated (designed binder, C-terminal cysteine alkylated, also called P1-055672) GVSDVPRDLEVVAATPTSLLISWSDDYHAHRYYRITYGETGGNSPVQEFTVPGEHVTATISGLKPGVDYTITVYAVTYDVEKAATDWSISINYRTPC
Completion: 30

Prompt: // next record ADX_6077_F02 DG→SG mutant, alkylated (designed binder, C-terminal cysteine alkylated, also called P1-055668) VSDVPRDLEVVAATPTSLLISWSDDYHAHRYYRITYGETGGNSPVQEFTVPGEHVTATISGLKPGVDYTITVYAVTYSGEKAATDWSISINYRTPC
Completion: 16

Prompt: // next record ADX_6077_F02 DG→DS mutant, alkylated (designed binder, C-terminal cysteine alkylated, also called P1-055667) GVSDVPRDLEVVAATPTSLLISWSDDYHAHRYYRITYGETGGNSPVQEFTVPGEHVTATISGLKPGVDYTITVYAVTYDSEKAATDWSISINYRTPC
Completion: 15

Prompt: // next record ADX_6077_F02 alkylated (designed binder, C-terminal cysteine (of PC) alkylated with iodoacetamide, also called alkylated (capped) Adnectin; alkylated parent) MGVSDVPRDLEVVAATPTSLLISWSDDYHAHRYYRITYGETGGNSPVQEFTVPGEHVTATISGLKPGVDYTITVYAVTYDGEKAATDWSISINYRTPCHHHHHH
Completion: 3.8

Prompt: // next record ADX_6077_F02 DG→EG mutant, alkylated (designed binder, C-terminal cysteine alkylated, also called P1-055673) GVSDVPRDLEVVAATPTSLLISWSDDYHAHRYYRITYGETGGNSPVQEFTVPGEHVTATISGLKPGVDYTITVYAVTYEGEKAATDWSISINYRTPC
Completion: 19
